// data source = patent US8586591B2

# Target or system: JAK3 tyrosine kinase (Homo sapiens)
pIC50: −log10 of the molar value. Structures can show the parent of a compound that is named as a salt.
pIC50 vs 7: at or above is rule met, below is rule not met.

Incoming: Please tell me: is the molecule CC(=O)N1CCCN(c2cc(Nc3cnccn3)nc(N[C@@H](C)c3ccc(F)cc3)c2)CC1 at or over 7 in terms of pIC50?
Outgoing: rule not met

Incoming: Please tell me: is the molecule C[C@H](Nc1nc(Nc2cnccn2)cc(-c2cn[nH]c2)n1)c1ccc(F)cc1 [Example 11, hydrochloride] at or over 7 in terms of pIC50?
Outgoing: rule met

Incoming: Please tell me: is the molecule C[C@H](Nc1nc(Nc2cnccn2)cc(-c2cn[nH]c2)n1)c1ccc(F)cc1 [Example 34, maleate] at or over 7 in terms of pIC50?
Outgoing: rule met

Incoming: Please tell me: is the molecule C[C@H](Nc1cccc(Nc2cnccn2)n1)c1ccc(F)cc1 [Example 117, dihydrochloride] at or over 7 in terms of pIC50?
Outgoing: rule not met

Incoming: Please tell me: is the molecule C[C@H](Nc1nc(Nc2cnccn2)cc(N2CC(C(N)=O)C2)n1)c1ccc(F)cc1 at or over 7 in terms of pIC50?
Outgoing: rule met

----------
Where a name gives a salt, the structure may show the parent alone.
Measurement record for JAK3 tyrosine kinase (Homo sapiens); quantity recorded: IC50.
Numbers only, in µM.

Solved entries:
Incoming: Given the compound C[C@H](Nc1cc(C(=O)NCc2ccccc2)cc(Nc2cnccn2)n1)c1ccc(F)cc1 [Example 162, hydrochloride] , write its reported IC50.
Outgoing: 0.37

Incoming: Given the compound C[C@H](Nc1nc(Nc2cnccn2)cc(N2CCOCC2)n1)c1ccc(F)cc1 [Example 31, maleate] , write its reported IC50.
Outgoing: 0.026

Incoming: Given the compound C[C@H](Nc1cc(OCCO)cc(Nc2cnccn2)n1)c1ccc(F)cc1 [Example 12, hydrochloride] , write its reported IC50.
Outgoing: 0.079

Give IC50 for all compounds that follow.
1. C[C@H](Nc1nc(Nc2cnccn2)cc(N2CC(O)C2)n1)c1ccc(F)cc1 [Example 72, hydrochloride]
2. C[C@H](Nc1nc(Nc2cnccn2)cc(-c2ccncc2)n1)c1ccc(F)cc1 [Example 15]
3. C[C@H](Nc1nc(Nc2cnccn2)cc(N2CCCC(C(N)=O)C2)n1)c1ccc(F)cc1 (stereo partly shown) [Example 63, hydrochloride]
4. C[C@H](Nc1cc(-c2ccnn2C)cc(Nc2cnccn2)n1)c1ccc(F)cc1 [Example 47]
5. C[C@H](Nc1cc(C2CCN(S(C)(=O)=O)CC2)cc(Nc2cnccn2)n1)c1ccc(F)cc1 [Example 215]

Outgoing:
1: 0.031; 2: 0.072; 3: 0.036; 4: 1.3; 5: 0.21

----------
Measurement record for JAK3 tyrosine kinase (Homo sapiens, UniProt P52333); quantity recorded: IC50.
Answers are plain numbers, in nM.

Solved entries:
Incoming: Given the compound C[C@H](Nc1cc(Nc2ccccn2)cc(Nc2cnccn2)n1)c1ccc(F)cc1 [Example 132] , write its reported IC50.
Outgoing: 350

Incoming: Given the compound C[C@H](Nc1nc(Nc2cnccn2)cc(N2CC(N3CCN(C)CC3)C2)n1)c1ccc(F)cc1 [Example 224] , write its reported IC50.
Outgoing: 16

// below: IC50 requested for another compound
Incoming: Given the compound C[C@H](Nc1nc(Nc2cnccn2)cc(N2CC(CN)C2)n1)c1ccc(F)cc1 [Example 230] , write its reported IC50.
Outgoing: 63

----------
Please provide measured pIC50 for the entries that follow.
# Target or system: JAK3 tyrosine kinase (Homo sapiens, UniProt P52333)
# Sequence (P52333 1-1124): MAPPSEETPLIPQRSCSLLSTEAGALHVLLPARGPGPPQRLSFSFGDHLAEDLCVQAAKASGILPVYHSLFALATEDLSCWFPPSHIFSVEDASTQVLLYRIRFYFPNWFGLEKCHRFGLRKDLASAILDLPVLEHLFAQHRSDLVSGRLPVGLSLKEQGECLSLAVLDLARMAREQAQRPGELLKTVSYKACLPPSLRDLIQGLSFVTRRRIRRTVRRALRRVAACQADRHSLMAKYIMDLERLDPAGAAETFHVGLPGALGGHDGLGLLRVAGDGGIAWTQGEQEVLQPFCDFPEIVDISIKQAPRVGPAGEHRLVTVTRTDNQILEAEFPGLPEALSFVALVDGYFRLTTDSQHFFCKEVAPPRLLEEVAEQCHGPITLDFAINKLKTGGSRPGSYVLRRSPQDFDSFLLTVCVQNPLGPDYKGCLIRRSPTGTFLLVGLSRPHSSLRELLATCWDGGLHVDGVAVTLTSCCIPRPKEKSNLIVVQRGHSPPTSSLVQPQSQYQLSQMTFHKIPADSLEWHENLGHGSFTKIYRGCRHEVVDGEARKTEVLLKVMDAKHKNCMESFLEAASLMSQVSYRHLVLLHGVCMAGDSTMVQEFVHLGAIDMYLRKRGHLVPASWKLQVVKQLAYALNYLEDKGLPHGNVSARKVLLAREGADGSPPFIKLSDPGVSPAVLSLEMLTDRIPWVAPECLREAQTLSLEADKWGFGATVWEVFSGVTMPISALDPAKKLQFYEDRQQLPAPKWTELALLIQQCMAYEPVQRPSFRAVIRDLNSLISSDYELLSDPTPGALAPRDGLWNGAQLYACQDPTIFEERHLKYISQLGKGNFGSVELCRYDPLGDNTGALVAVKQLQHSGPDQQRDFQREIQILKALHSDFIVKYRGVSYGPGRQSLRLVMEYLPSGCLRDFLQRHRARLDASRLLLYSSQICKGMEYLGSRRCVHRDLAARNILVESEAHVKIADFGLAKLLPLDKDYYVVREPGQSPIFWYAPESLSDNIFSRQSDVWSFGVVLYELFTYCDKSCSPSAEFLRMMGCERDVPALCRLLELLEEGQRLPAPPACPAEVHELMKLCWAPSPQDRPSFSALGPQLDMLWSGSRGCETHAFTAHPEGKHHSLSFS
Where a name gives a salt, the structure may show the parent alone.
Answers are plain numbers, as −log10 of the molar value.

Solved entries:
Incoming: Given the compound CCOCCNC(=O)c1cc(Nc2cnccn2)nc(N[C@@H](C)c2ccc(F)cc2)c1 , write its reported pIC50.
Outgoing: 6.70

Incoming: Given the compound C[C@H](Nc1nc(Nc2cnccn2)cc(N[C@@H](CO)C(N)=O)n1)c1ccc(F)cc1 , write its reported pIC50.
Outgoing: 6.89

Incoming: Given the compound C[C@H](Nc1nc(Nc2cnccn2)cc(N2CC(=O)NC(=O)C2)n1)c1ccc(F)cc1 , write its reported pIC50.
Outgoing: 6.47

Incoming: Given the compound C[C@H](Nc1nc(Nc2cnccn2)cc(-n2cc(C(=O)O)cn2)n1)c1ccc(F)cc1 , write its reported pIC50.
Outgoing: 6.42

Give pIC50 for all compounds that follow.
1. C[C@H](Nc1cc(N2CC(C)(O)C2)cc(Nc2cnccn2)n1)c1ccc(F)cc1 [Example 205, hydrochloride]
2. C[C@H](Nc1cc(-c2cnn(C)c2)cc(Nc2cnccn2)n1)c1ccc(F)cc1 [Example 4, hydrochloride]
3. C[C@H](Nc1nc(NCCNS(C)(=O)=O)cc(Nc2cnccn2)n1)c1ccc(F)cc1 [Example 77, hydrochloride]
4. C[C@H](Nc1nc(Nc2cnccn2)cc(OCCO)n1)c1ccc(F)cc1 [Example 95, hydrochloride]
5. CNC(=O)c1cc(Nc2cnccn2)nc(N[C@@H](C)c2ccc(F)cc2)c1
6. C[C@H](Nc1nc(Nc2cnccn2)cc(OCCN(C)C)n1)c1ccc(F)cc1 [Example 89, dihydrochloride]
7. C[C@H](Nc1cc(-c2ccc(O)nc2)cc(Nc2cnccn2)n1)c1ccc(F)cc1 [Example 7, hydrochloride]
8. C[C@H](Nc1nc(Nc2cnccn2)cc(-c2cccc(C(N)=O)c2)n1)c1ccc(F)cc1

Outgoing:
6.77
7.36
7.43
6.96
7.00
6.82
7.41
7.01

Give pIC50 for all compounds that follow.
1. C[C@H](Nc1cc(N2CCS(=O)(=O)CC2)cc(Nc2cnccn2)n1)c1ccc(F)cc1
2. C[C@H](Nc1nc(Nc2cnccn2)cc(N2CCC(N)C2)n1)c1ccc(F)cc1 (stereo partly shown)
3. C[C@H](Nc1nc(C#N)cc(Nc2cnccn2)n1)c1ccc(F)cc1
4. C[C@H](Nc1cc(-c2ncon2)cc(Nc2cnccn2)n1)c1ccc(F)cc1 [Example 147, hydrochloride]

Outgoing:
1: 7.34; 2: 7.22; 3: 5.68; 4: 6.04

----------
# Target or system: BaF3 cells into which JAK2 V617F gene was introduced (Homo sapiens, UniProt O60674, V617F, cells depend on it)
# Sequence (O60674 whole entry V617F): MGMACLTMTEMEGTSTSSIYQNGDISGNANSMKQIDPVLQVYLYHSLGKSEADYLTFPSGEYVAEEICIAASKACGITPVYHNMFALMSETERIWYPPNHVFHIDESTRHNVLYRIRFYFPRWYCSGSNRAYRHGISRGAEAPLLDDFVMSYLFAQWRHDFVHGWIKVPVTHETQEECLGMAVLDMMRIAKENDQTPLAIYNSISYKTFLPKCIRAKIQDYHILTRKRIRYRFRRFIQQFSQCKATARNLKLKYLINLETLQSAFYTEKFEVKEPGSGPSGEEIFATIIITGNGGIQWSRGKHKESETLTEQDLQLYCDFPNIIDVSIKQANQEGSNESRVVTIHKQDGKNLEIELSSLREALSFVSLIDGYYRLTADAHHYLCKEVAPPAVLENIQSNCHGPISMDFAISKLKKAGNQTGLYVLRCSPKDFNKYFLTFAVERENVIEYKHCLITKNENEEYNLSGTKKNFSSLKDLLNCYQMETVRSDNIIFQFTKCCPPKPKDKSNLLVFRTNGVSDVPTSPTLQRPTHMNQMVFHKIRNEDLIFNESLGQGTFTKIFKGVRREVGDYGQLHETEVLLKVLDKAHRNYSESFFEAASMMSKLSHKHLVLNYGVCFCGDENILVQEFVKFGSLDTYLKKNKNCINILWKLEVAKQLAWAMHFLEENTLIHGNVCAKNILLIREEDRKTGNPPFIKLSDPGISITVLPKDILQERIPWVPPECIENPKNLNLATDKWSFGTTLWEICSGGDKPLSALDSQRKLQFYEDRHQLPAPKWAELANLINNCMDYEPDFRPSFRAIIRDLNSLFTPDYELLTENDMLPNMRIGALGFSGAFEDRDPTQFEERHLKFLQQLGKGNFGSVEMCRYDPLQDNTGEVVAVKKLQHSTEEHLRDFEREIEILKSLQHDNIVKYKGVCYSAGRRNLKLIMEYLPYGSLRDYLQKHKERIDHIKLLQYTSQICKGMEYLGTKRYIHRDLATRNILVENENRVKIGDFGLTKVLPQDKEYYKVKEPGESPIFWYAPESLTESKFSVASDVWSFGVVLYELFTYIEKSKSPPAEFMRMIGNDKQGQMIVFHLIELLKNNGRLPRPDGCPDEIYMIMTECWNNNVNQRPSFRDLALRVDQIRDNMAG
# Procedure details: Test 2: growth inhibitory action against variant JAK2 expressed cells (MTT method)
# Format: cell-based
# Run parameters: incubation for 3 days, triplicate, read-out: concentration of the test material which inhibited 50% of the cell growth (IC50)
Structures can show the parent of a compound that is named as a salt.
Please provide measured GI50 for the entries that follow.
One number for each entry, in nM.

Incoming: Given the compound C[C@H](Nc1nc(Nc2cnccn2)cc(N2CCN(S(C)(=O)=O)CC2)n1)c1ccc(F)cc1 [Example 65, hydrochloride] , write its reported GI50.
Outgoing: 93

Give GI50 for all compounds that follow.
1. CC(=O)N[C@H]1CCN(c2cc(Nc3cnccn3)nc(N[C@@H](C)c3ccc(F)cc3)n2)C1 [Example 2, hydrochloride]
2. C[C@H](Nc1nc(Nc2cnccn2)cc(N2CCC(O)C2)n1)c1ccc(F)cc1 (some centres unmarked) [Example 50, hydrochloride]
3. C[C@H](Nc1nc(Nc2cnccn2)cc(N2CCC(O)(CO)CC2)n1)c1ccc(F)cc1
4. C[C@H](Nc1nc(Nc2cnccn2)cc(N2CC(N(C)C)C2)n1)c1ccc(F)cc1
5. C[C@H](Nc1cc(-c2cn[nH]c2)cc(Nc2cnccn2)n1)c1ccc(F)cc1
6. C[C@H](Nc1cc(C(=O)NCC2CC2)cc(Nc2cnccn2)n1)c1ccc(F)cc1
7. CC(=O)NCC1CN(c2cc(Nc3cnccn3)nc(N[C@@H](C)c3ccc(F)cc3)n2)C1

Outgoing:
1. 70
2. 53
3. 60
4. 64
5. 94
6. 63
7. 88
